ASSAYED TARGET: PKM2 (Homo sapiens, UniProt P14618)
Sequence (P14618 whole entry): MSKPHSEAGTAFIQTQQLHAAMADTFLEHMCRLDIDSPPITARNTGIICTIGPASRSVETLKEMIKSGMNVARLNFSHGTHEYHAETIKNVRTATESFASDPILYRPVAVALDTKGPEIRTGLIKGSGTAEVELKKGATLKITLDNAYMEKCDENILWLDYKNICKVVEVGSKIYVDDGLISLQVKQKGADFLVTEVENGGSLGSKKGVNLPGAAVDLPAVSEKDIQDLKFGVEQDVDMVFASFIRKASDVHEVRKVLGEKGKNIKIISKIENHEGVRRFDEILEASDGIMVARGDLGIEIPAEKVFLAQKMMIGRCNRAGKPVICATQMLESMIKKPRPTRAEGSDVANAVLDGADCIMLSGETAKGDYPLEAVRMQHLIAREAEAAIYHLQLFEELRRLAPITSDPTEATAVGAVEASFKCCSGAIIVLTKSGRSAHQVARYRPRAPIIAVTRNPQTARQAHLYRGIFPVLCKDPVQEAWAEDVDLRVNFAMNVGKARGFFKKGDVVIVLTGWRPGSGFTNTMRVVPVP
MEASUREMENT PROTOCOL: PKM2 activation biochemical assay (AC50 / max. response vs fructose 1,6-bisphosphate)
ASSAY SETUP: % maximum response in a biochemical assay as compared with Fructose 1,6-bisphosphate
Listing of recorded Max. Resp. (%) by entry.
Your answer is read as %, so omit the unit and give the number.

Reference set, count: 3
INSERT INTO results (compound, units_label, value_reported) VALUES
  ('CCN1CCC(N(Cc2ccccc2F)C(=O)c2cc(C(F)(F)F)n[nH]2)C1 (stereo not shown)', '%', 68),
  ('O=C(c1cc(C(F)(F)F)n[nH]1)N(Cc1ccccc1Cl)CC1COC1', '%', 47),
  ('O=C(c1cc(C(F)(F)F)n[nH]1)N(CCC1CC1)Cc1ccc(O)cc1F', '%', 100);

Now, please, on to the next compound.
### Prompt Any idea what its Max. Resp. (%) is? The compound is O=C(c1cc(C(F)(F)F)n[nH]1)N(CCC1CCS(=O)(=O)C1)Cc1ccccc1Cl (stereo not shown)
### Response 105
